Entries annotated with measured Modification (GSK137 treatment)
Target system: BCL6 BTB/POZ domain (Homo sapiens, UniProt P41182, C67R/C84N/C8Q)
Assay method text: Displacement study with GSK137, intact protein LC-MS
Format: binding
Design: hBCL6-Flag-6H-Avi 3Cmut (5–129) produced as part of the GSK/GenScript collaboration; Flag (C); 6H (His6) (C); Avi (C)
Condition description: 1 μM protein; 50 μM SF; 50 μM GSK137; 20 °C, 24 h; average of duplicate

CN(C)C(=O)Nc1cccc(CNC(=O)Cc2ccc(S(=O)(=O)F)cc2)c1: 3.8%
O=C(Cc1ccc(S(=O)(=O)F)cc1)N1CC(Oc2ccc(F)c(F)c2)C1: 1.6%
CC(=O)Nc1cccc(CNC(=O)Cc2ccc(S(=O)(=O)F)cc2)c1: 4.8%

Now for a further compound.
Q: Modification (GSK137 treatment) for NC(=O)c1ccccc1OC1CN(C(=O)Cc2ccc(S(=O)(=O)F)cc2)C1 ?
Result: 1.6%

Origin of values: paper PMC10510102
